- testSystem: human GlyT1c (Homo sapiens (Human), UniProt P48067)
- experimentDescription: [3H]-Glycine uptake into recombinant CHO cells expressing human GlyT1
- Type: cell-based
- conditions: hGlyT1c_5_CHO cells, 200 nM [3H]-glycine
pIC50: −log10 of the molar value. Where a name gives a salt, the structure may show the parent alone.

- compound: "O=S(=O)(NCCOc1ccc2c(c1)C(C1(c3ccc(Cl)cc3)CCC1)NCC2)C(F)(F)F (stereo not shown) [Example 11]"
  testSystem: "human GlyT1c (Homo sapiens (Human), UniProt P48067)"
  pIC50: "≥ 5.00"
- compound: "CCCS(=O)(=O)NCCOc1ccc2c(c1)C(C1(c3cccc(Cl)c3)CCC1)N(CCN)CC2 (stereo not shown) [Example 78, bis(trifluoroacetate)]"
  testSystem: "human GlyT1c (Homo sapiens (Human), UniProt P48067)"
  pIC50: "≥ 5.00"
- compound: "CC(C)(C)NS(=O)(=O)CCCOc1ccc2c(c1)C(C1(c3ccc(Cl)cc3)CCC1)NCC2 (stereo not shown) [Example 118, hydrochloride]"
  testSystem: "human GlyT1c (Homo sapiens (Human), UniProt P48067)"
  pIC50: "≥ 5.00"
- compound: "CCCS(=O)(=O)NCCOc1ccc2c(c1)C(C1(c3ccccc3)CCC1)NCC2 (stereo not shown) [Example 50]"
  testSystem: "human GlyT1c (Homo sapiens (Human), UniProt P48067)"
  pIC50: "≥ 7.00"
- compound: "O=S(=O)(NCCOc1ccc2c(c1)C(C1(c3ccc(Cl)cc3)CCC1)NCC2)N1CCNCC1 (stereo not shown) [Example 55, dihydrochloride]"
  testSystem: "human GlyT1c (Homo sapiens (Human), UniProt P48067)"
  pIC50: "≥ 5.00"
- compound: "CCCS(=O)(=O)NCCOc1ccc2c(c1)C(C1(c3ccc(Cl)cc3)CCC1)N(C(=N)NC#N)CC2 (stereo not shown) [Example 46]"
  testSystem: "human GlyT1c (Homo sapiens (Human), UniProt P48067)"
  pIC50: "≥ 6.00"
- compound: "Cc1nc(S(=O)(=O)NCCOc2ccc3c(c2)C(C2(c4ccc(Cl)cc4)CCC2)NCC3)cn1C (stereo not shown) [Example 52]"
  testSystem: "human GlyT1c (Homo sapiens (Human), UniProt P48067)"
  pIC50: "≥ 5.00"

###

- testSystem: human GlyT1c transporter (Homo sapiens (Human), UniProt P48067)
- Sequence (P48067 whole entry): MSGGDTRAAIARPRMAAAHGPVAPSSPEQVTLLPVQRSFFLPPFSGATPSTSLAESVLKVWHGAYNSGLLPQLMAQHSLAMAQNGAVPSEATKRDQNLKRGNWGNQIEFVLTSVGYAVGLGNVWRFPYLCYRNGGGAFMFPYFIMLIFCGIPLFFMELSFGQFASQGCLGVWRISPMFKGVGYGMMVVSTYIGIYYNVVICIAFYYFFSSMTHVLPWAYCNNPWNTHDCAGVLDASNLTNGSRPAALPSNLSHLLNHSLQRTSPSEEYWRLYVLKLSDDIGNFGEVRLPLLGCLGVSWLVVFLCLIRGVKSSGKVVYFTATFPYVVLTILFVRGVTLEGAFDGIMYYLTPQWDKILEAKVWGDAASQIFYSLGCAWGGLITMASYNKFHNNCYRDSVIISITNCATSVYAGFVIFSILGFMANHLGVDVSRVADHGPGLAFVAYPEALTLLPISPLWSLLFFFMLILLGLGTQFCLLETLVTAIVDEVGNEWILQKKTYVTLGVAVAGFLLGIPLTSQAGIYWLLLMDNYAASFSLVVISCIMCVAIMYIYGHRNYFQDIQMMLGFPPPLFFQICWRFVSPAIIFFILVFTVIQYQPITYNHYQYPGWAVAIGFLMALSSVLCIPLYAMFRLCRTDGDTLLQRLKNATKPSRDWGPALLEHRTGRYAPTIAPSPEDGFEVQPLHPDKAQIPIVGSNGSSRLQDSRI
- experimentDescription: Radioligand binding assay using recombinant CHO cell membranes expressing human GlyT1
- conditions: examples 88-204, radioligand not specified by footnote, read-out: radioligand binding Kiapp
Counter-ions that a name gives are not always drawn.

- molecule: "O=S(=O)(Nc1cccnc1Oc1ccc2c(c1)C(C1(c3ccc(Cl)cc3)CCC1)NCC2)c1cccnc1 (stereo not drawn) [Example 136, trihydrochloride]"
  Ki: "≤ 10 µM"
- molecule: "CNc1nnc(S(=O)(=O)NCCOc2ccc3c(c2)C(C2(c4ccc(Cl)cc4)CCC2)NCC3)s1 (stereo not drawn) [Example 162, hydrochloride]"
  Ki: "≤ 1 µM"
- molecule: "NC(=O)Nc1ccc(S(=O)(=O)NCCOc2ccc3c(c2)C(C2(c4ccc(Cl)cc4)CCC2)NCC3)cc1 (stereo not drawn) [Example 191, hydrochloride]"
  Ki: "≤ 10 µM"
- molecule: "NCCS(=O)(=O)NCCOc1ccc2c(c1)C(C1(c3ccc(Cl)cc3)CCC1)NCC2 (single isomer, unassigned) [Example 158, dihydrochloride]"
  Ki: "≤ 0.1 µM"
- molecule: "O=S(=O)(CCCOc1ccc2c(c1)C(C1(c3ccc(Cl)cc3)CCC1)NCC2)N1CCNCC1 (stereo not drawn) [Example 133, dihydrochloride]"
  Ki: "≤ 10 µM"
- molecule: "CC(C)NCCCS(=O)(=O)NCCOc1ccc2c(c1)C(C1(c3ccc(Cl)cc3)CCC1)NCC2 (stereo not drawn) [Example 197]"
  Ki: "≤ 10 µM"
- molecule: "CCCS(=O)(=O)NCCOc1ccc2c(c1)C(C1(c3ccc(Cl)c(N)c3)CCC1)NCC2 (stereo not drawn) [Example 142, dihydrochloride]"
  Ki: "≤ 0.1 µM"
- molecule: "O=S(=O)(CCC(F)(F)F)NCCOc1ccc2c(c1)C(C1(c3ccc(Cl)cc3)CCC1)NCC2 (stereo not drawn) [Example 144, hydrochloride]"
  Ki: "≤ 0.1 µM"
- molecule: "CCCS(=O)(=O)NCCOc1ccc2c(c1)C(C(O)(c1ccc(Cl)cc1)c1ccc(Cl)cc1)NCC2 (stereo not drawn) [Example 176, hydrochloride]"
  Ki: "≤ 10 µM"
- molecule: "O=S(=O)(NCCOc1ccc2c(c1)C(C1(c3ccc(Cl)cc3)CCC1)NCC2)c1ccc(CCF)cc1 (stereo not drawn) [Example 110, hydrochloride]"
  Ki: "≤ 1 µM"
- molecule: "CC(=O)N1CC(S(=O)(=O)NCCOc2ccc3c(c2)C(C2(c4ccc(Cl)cc4)CCC2)NCC3)C1 (stereo not drawn) [Example 180]"
  Ki: "≤ 10 µM"
- molecule: "O=S(=O)(Nc1ccc(Oc2ccc3c(c2)C(C2(c4ccc(Cl)cc4)CCC2)NCC3)cc1)c1cccs1 (stereo not drawn) [Example 115, hydrochloride]"
  Ki: "≤ 1 µM"
- molecule: "O=S(=O)(CC1CC1)NCc1ccc2c(c1)C(C1(c3ccccn3)CCC1)NCC2 (stereo not drawn) [Example 134, trifluoroacetate]"
  Ki: "≤ 10 µM"
- molecule: "O=C(OCc1ccccc1)N1CCC(S(=O)(=O)NCCOc2ccc3c(c2)C(C2(c4ccc(Cl)cc4)CCC2)NCC3)C1 (stereo not drawn) [Example 170]"
  Ki: "≤ 1 µM"
- molecule: "CCCS(=O)(=O)NCc1ccc2c(c1)C(C1(c3ccc(Cl)cc3)CCC1)NCC2 (stereo not drawn) [Example 90, hydrochloride]"
  Ki: "≤ 0.1 µM"
- molecule: "CC(C)(c1ccc(Cl)cc1)C1NCCc2ccc(C#N)cc21 (stereo not drawn) [Example 107, hydrochloride]"
  Ki: "≤ 1 µM"
- molecule: "O=S(=O)(NCCOc1ccc2c(c1)C(C1(c3ccc(Cl)cc3)CCC1)NCC2)c1ncn[nH]1 (stereo not drawn) [Example 199]"
  Ki: "≤ 10 µM"
- molecule: "O=S(=O)(Nc1cccnc1Oc1ccc2c(c1)C(C1(c3ccc(Cl)cc3)CCC1)NCC2)c1cccs1 (stereo not drawn) [Example 127, dihydrochloride]"
  Ki: "≤ 10 µM"
- molecule: "CCCS(=O)(=O)N(CCN)CCOc1ccc2c(c1)C(C1(c3ccc(Cl)cc3)CCC1)NCC2 (stereo not drawn) [Example 174, dihydrochloride]"
  Ki: "≤ 10 µM"
- molecule: "CCNC(=O)NCCS(=O)(=O)NCCOc1ccc2c(c1)C(C1(c3ccc(Cl)cc3)CCC1)NCC2 (stereo not drawn) [Example 202]"
  Ki: "≤ 100 µM"
- molecule: "O=S(=O)(NCCOc1ccc2c(c1)C(C1(c3ccc(Cl)cc3)CCC1)NCC2)c1ncn[nH]1 (stereo not drawn) [Example 204]"
  Ki: "≤ 100 µM"
- molecule: "CCCS(=O)(=O)NCCOc1ccc2c(c1)C(C(C)(C)c1ccc(Cl)cc1)NCC2 (stereo not drawn) [Example 139]"
  Ki: "≤ 0.1 µM"
- molecule: "Cn1cnc(S(=O)(=O)NCc2ccc3c(c2)C(C2(c4ccc(Cl)cc4)CCC2)NCC3)c1 (stereo not drawn) [Example 93, hydrochloride]"
  Ki: "≤ 0.1 µM"
- molecule: "COCCNS(=O)(=O)CCCOc1ccc2c(c1)C(C1(c3ccc(Cl)cc3)CCC1)NCC2 (stereo not drawn) [Example 135, hydrochloride]"
  Ki: "≤ 10 µM"
- molecule: "O=S(=O)(NCCOc1ccc2c(c1)C(C1(c3ccc(Cl)cc3)CCC1)NCC2)C1CCNC1 (single isomer, unassigned) [Example 175, dihydrochloride]"
  Ki: "≤ 10 µM"
- molecule: "NCCCNS(=O)(=O)CCCOc1ccc2c(c1)C(C1(c3ccc(Cl)cc3)CCC1)NCC2 (stereo not drawn) [Example 137, dihydrochloride]"
  Ki: "≤ 10 µM"
- molecule: "Cn1cnc(S(=O)(=O)NCC(=O)Nc2ccc3c(c2)C(C2(c4ccc(Cl)cc4)CCC2)NCC3)c1 (stereo not drawn) [Example 111, dihydrochloride]"
  Ki: "≤ 1 µM"
